The reported numbers originate from patent US20240182445A1.

# SYSTEM UNDER TEST: human TREK-1 (Homo sapiens, UniProt O95069)
# Construct: expressed in transfected cells
# Sequence (O95069 whole entry): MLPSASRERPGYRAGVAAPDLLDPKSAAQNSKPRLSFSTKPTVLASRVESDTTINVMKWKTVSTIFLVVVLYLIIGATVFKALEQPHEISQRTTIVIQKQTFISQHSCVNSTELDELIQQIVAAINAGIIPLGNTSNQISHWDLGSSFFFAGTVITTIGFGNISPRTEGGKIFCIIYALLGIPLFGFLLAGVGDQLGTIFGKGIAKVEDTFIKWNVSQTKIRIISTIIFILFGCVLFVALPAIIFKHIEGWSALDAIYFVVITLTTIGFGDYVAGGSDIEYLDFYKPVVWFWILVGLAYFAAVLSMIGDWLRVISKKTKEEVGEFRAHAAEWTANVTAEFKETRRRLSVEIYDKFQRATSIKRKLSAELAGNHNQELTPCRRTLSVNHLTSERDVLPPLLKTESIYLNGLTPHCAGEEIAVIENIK
# EXPERIMENT: TREK-1 Thallium (Tl+) flux assay, Method 1
# Format: cell-based
# TEST CONDITIONS: TREK-1 Thallium (Tl+) flux assay; values without footnote *12 are Method 1
pIC50: −log10 of the molar value.
VALUE KIND: pIC50

Look over these answered cases.
INSERT INTO measurements (sample_smiles, value_kind, result) VALUES
  ('Cc1cc(C#Cc2ccc(F)cc2)cnc1NC(=O)c1c(Cl)cnn1C1CCN(C(=O)C(C)(C)C)CC1', 'pIC50', 6.55),
  ('CC(=O)N1CCC(C#N)(Cn2ncc(Cl)c2C(=O)Nc2ncc(C#Cc3ccccc3)cc2F)CC1', 'pIC50', 6.92);

P. CCNC(=O)N1CCC(n2ncc(Cl)c2C(=O)Nc2ncc(C#Cc3cccc(F)c3)cc2C)CC1
Q. Cc1cc(C#Cc2ccccc2)cnc1NC(=O)c1c(Cl)cnn1-c1ccc2c(c1)OCCO2
R. Cc1cc(C#Cc2ccccc2)cnc1NC(=O)c1c(Cl)cnn1C1CCN(C(=O)CC(F)(F)F)CC1
Exam item: rank_up(items): orders items by reported pIC50 in ascending numerical order. Reply with the item labels sorted in the order that was asked for.
Marked response: R, P, Q
